Ref: patent US4633014A

Each item that follows carries a reported LD50 at 240 h.
# Experimental Protocol: in vivo
# Stated Conditions: mouse, in vivo, ip
Recorded Endpoint: LD50 at 240 h (mg/kg)

1) C=C[C@H]1C[N@@]2CC[C@H]1C[C@@H]2[C@@H](O)c1ccnc2ccc(OC)cc12 [Quinidine, quinidine, reference compound] :: 156
2) CNC(=O)N(CCC#N)N(C)C :: 1800
3) CN(C)N(CCC(=O)O)C(=O)Nc1ccccc1 :: 1750
4) CCN(CC)CCNC(=O)c1ccc(N)cc1 [Procaineamide, procaine amide, reference compound] :: 290
5) COC(=O)CCN(C(=O)c1ccccc1F)N(C)C :: 1600
6) COC(=O)CCN(C(=O)OC)N(C)C :: 1380
7) COC(=O)CCN(C(=O)Nc1ccccc1)N(C)C :: 1350
8) CCCC(=O)N(CCC(=O)OC)N(C)C :: 1750
9) CN(C)N(CCC(N)=O)C(=O)Nc1ccccc1 :: 925
10) CCOC(=O)CCN(C(C)=O)N(C)C :: 2380

----------
Each item that follows carries a reported Dose of calcium chloride causing arrythmia in animals under experiment.
# Test system: arrhythmia induced by an intravenous administration of calcium chloride
# Experimental Protocol: Antiarrhythmic activity on a model of arrhythmia induced by intravenous calcium chloride (antagonism to calcium) in mice
# Assay type: in vivo
# Stated Conditions: white mice; intraperitoneal dose 5 mg/kg, 20-40 minutes before
Recorded Endpoint: Dose of calcium chloride causing arrythmia in animals under experiment

1. CCOC(=O)CCN(C(C)=O)N(C)C [I-42] :: 87,5 mg/kg
2. CCCCCC(=O)N(CCC(N)=O)N(C)C [I-49] :: 101,3 mg/kg
3. COC(=O)CCN(C(=O)c1ccc(Br)cc1)N(C)C [I-32] :: 90,3 mg/kg
4. COC(=O)CCN(C(=O)OC)N(C)C [I-36] :: 94,0 mg/kg
5. CN(C)N(CCC(N)=O)C(=O)c1ccccc1 [I-51] :: 88,7 mg/kg
6. C=CCNC(=S)N(CCC(=O)OC)N(C)C [I-6] :: 97,9 mg/kg
7. COC(=O)CCN(C(=S)Nc1ccccc1)N(C)C [I-7] :: 132 mg/kg
8. CNC(=O)N(C(CC(=O)OC)C(=O)OC)N(C)C (stereo not drawn) [I-55] :: 88,7 mg/kg
9. COC(=O)CCN(C(=O)c1ccccc1F)N(C)C [I-31] :: 88,5 mg/kg
10. CN(C)N(CCC#N)C(=S)Nc1ccccc1 [I-23] :: 86 mg/kg
11. COC(=O)C(C)CN(C(N)=O)N(C)C (stereo not drawn) [I-11] :: 100,3 mg/kg
12. COC(=O)CCN(C(=O)Nc1ccc(NC(=O)N(CCC(=O)OC)N(C)C)cc1)N(C)C [I-4] :: 86,0 mg/kg

----------
# Test system: arrhythmia induced by an intravenous administration of calcium chloride
# Experimental Protocol: Antiarrhythmic activity on a model of arrhythmia induced by intravenous calcium chloride (antagonism to calcium) in mice
# Type: in vivo
# Stated Conditions: white mice; intraperitoneal dose 15 mg/kg, 20-40 minutes before
Each item that follows carries a reported Dose of calcium chloride causing death in animals under experiment.
Recorded Endpoint: Dose of calcium chloride causing death in animals under experiment

1) CCCCCCCCCCCCCCCC(=O)N(CCC(=O)OC)N(C)C :: 120,6 mg/kg
2) CN(C)N(CCC#N)C(=O)c1ccccc1 :: 133,0 mg/kg
3) CN(C)N(CCC(=O)O)C(=O)Nc1ccccc1 :: 163 mg/kg
4) COC(=O)CC(C(=O)OC)N(C(=O)Nc1ccccc1)N(C)C (stereo not shown) :: 128,0 mg/kg
5) COC(=O)CCN(C(=O)c1ccccc1COC(=O)c1ccccc1)N(C)C :: 132,5 mg/kg
6) CCCCCCCCCCCCCCCCCC(=O)N(CCC(N)=O)N(C)C :: 142,5 mg/kg
7) COC(=O)C(C)CN(C(=O)c1ccccc1F)N(C)C (stereo not shown) :: 118,6 mg/kg
8) CN(C)N(CCC(N)=O)C(=O)c1ccccc1 :: 112,0 mg/kg
9) CCCCCC(=O)N(CCC(=O)OCC)N(C)C :: 120,3 mg/kg
10) COC(=O)C(C)CN(C(=O)c1ccc(Br)cc1)N(C)C (stereo not shown) :: 122,0 mg/kg
11) CCCC(=O)N(CCC(N)=O)N(C)C :: 109 mg/kg
12) CCCCCC(=O)N(CC(C)C(=O)OC)N(C)C (stereo not shown) :: 120,0 mg/kg
13) CCOC(=O)CCN(C(=O)c1ccc(Br)cc1)N(C)C :: 118,3 mg/kg
14) COC(=O)C(C)CN(C(=O)c1ccccc1)N(C)C (stereo not shown) :: 121,5 mg/kg
15) CC(CN(C(=S)Nc1ccccc1)N(C)C)C(N)=O (stereo not shown) :: 118,6 mg/kg
16) CN(C)N(CCC(N)=O)C(=O)CCO :: 123,6 mg/kg
